System: Zymoseptoria tritici (SEPTTR-184)
protocol_description: Efficacy of target gene fragments (MgCytB dsRNA tiles) on wheat plants, SEPTTR-184
Assay type: in vivo
condition_info: 1DP (preventative); average of 200, 50, 12.5, 3.125 ppm
Description: The 200 ppm rate for each treatment was prepared by adding the calculated volume of the corresponding dsRNA solution in TE buffer. Lower rates were prepared as 4-fold dilutions (50 ppm, 12.5 ppm, and 3.12 ppm). A non-target dsRNA control (YFP), a TE/phosphate buffer control, disease pressure control, and clean plant control were included. These plants were inoculated with an aqueous spore suspension of Zymoseptoria tritici either prior to or after fungicidal treatments. […]
quantity: Disease Control All Rates Average SEPTTR-184 1DP (%)
Output spec: scalar in %, unitless text.

Ask: Tell me measured Disease Control All Rates Average SEPTTR-184 1DP for MgCytB-T4: 219 bp dsRNA of Zymoseptoria CytB region T4, location 1-219 (SEQ ID NO:7) (nucleic acid, listed as Zymoseptoria tritici, complementary strand of dsRNA) ATGAGGATTTGGAAGAGTCACCCTTTATTTAGTCTGGTTAATGGTTATCTTATCGATTCACCACAACCAAGTAATCTAAGCTATCTATGAAATTTCGGTTCATTACTGGGATTTTGTCTTGTAATACAAATCGTTACTGGTGTTACACTTGCTATGCATTATAACCCTAGCGTATCTGAAGCATTTAACTCAGTTGAACACATAATGAGAGATGTAAAC please.
Result: 73

Ask: Tell me measured Disease Control All Rates Average SEPTTR-184 1DP for MgCytB-T2: 203 bp dsRNA of Zymoseptoria CytB region 2, location 603-805 (SEQ ID NO:5) (nucleic acid, listed as Zymoseptoria tritici, complementary strand of dsRNA) ACACGATACAGCGGGTTCAGGAAATCCTTTAGGTGTATCAGGTAACTACGATAGATTACCATTCGCCCCTTACTTTATATTCAAAGATTTAATAACAATATTTTTATTCATTATAGTGTTATCAATATTTATTTTCTTTATGCCTAACGTTTTAGGTGACAGCGAGAATTATGTTATGGCTAACCCTATGCAAACTCCACCTG please.
Result: 71

Ask: Tell me measured Disease Control All Rates Average SEPTTR-184 1DP for MgCytB-T3: 116 bp dsRNA of Zymoseptoria CytB region 3, location 279-394 (SEQ ID NO:6) (nucleic acid, listed as Zymoseptoria tritici, long dsRNA, chemistry not given here, further chemistry not given here) TTACCTGCACGTGGGTAGAGGGTTATACTACGGGTCATACAAAGCCCCTAGAACATTAACATGAACAATCGGTACTATAATACTAGTTCTGATGATGGCAACCGCATTCTTAGGGT please.
Result: 68

Ask: Tell me measured Disease Control All Rates Average SEPTTR-184 1DP for MgCytB-T7: 221 bp dsRNA of Zymoseptoria CytB region T7, location 947-1167 (SEQ ID NO:10) (nucleic acid, listed as Zymoseptoria tritici, complementary strand of dsRNA) GATTACAGTTTAGACCTTTAAGCAAGATCACATTTTACATATTTGTTGCTAACTTCTTAGTATTAATGCAATTAGGTGCTAATCACGTTGAGTCACCATTTATAGAATTTGGGCAAATTAGTACAGTACTGTACTTTTCACATTTCTTAATCATAGTGCCTCTAGTAAGCTTAATCGAGAATACTTTAGTGGATATGCACTTAAACAACACAATAACGTAA please.
Result: 69
